# Test system: huH-1 (Hepatocellular Carcinoma);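 also: after 72 h of two-drug dosing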
# test-protocol: Bliss excess, mean over the matrix (fraction); higher = more synergy
For each entry below, report its Bliss excess value.
Give bare numbers.

Please review the entries below; each comes with its answer.
{"columns": ["compound", "Bliss excess"],
 "data": [
  ["C=CCn1c(=O)c2cnc(Nc3ccc(N4CCN(C)CC4)cc3)nc2n1-c1cccc(C(C)(C)O)n1 [AZD1775] + C1CN(CCC1(C(=O)N[C@@H](CCO)C2=CC=C(C=C2)Cl)N)C3=NC=NC4=C3C=CN4 [Capivasertib] (first compound max 3 µM, partner max 3 µM)", -0.0242],
  ["Cc1cc2ncnn2cc1Nc1ncc2c(n1)n(C1CCOCC1)c(=O)n2C [AZD7648] + O=C(c1cc(Cc2n[nH]c(=O)c3ccccc23)ccc1F)N1CCN(C(=O)C2CC2)CC1 [Olaparib] (first compound max 10 µM, 7x7, partner max 10 µM)", -0.0557],
  ["COc1cccc(OCCCN)c1-c1cc(Nc2cnc(C#N)cn2)n[nH]1 [Prexasertib] + CCc1c2c(nc3ccc(O)cc13)-c1cc3c(c(=O)n1C2)COC(=O)[C@]3(O)CC [SN-38] (first compound max 1 µM, 7x7, partner max 0.3 µM)", 0.022]
]}

Now look at this entry.
Give its Bliss excess value. Item: Cc1nc(Nc2ncc(C(=O)Nc3c(C)cccc3Cl)s2)cc(N2CCN(CCO)CC2)n1 [Dasatinib] + CC(=O)Nc1cccc(-n2c(=O)n(C3CC3)c(=O)c3c(Nc4ccc(I)cc4F)n(C)c(=O)c(C)c32)c1 [Trametinib] (first compound max 2 µM, 7x7, partner max 1 µM)
-0.0076
